Measured normalized growth accompanies every entry in the list below.
PROCEDURE TEXT: chemical genetic growth profiling, strain panel (AID 1159580);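 also: tested at 20 µM; growth read once vehicle control cultures reached saturation at 30 °C; 1 = growth at the plate median or of vehicle wells; lower values mean less growth of the strain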
REPORTED CONDITIONS: S. cerevisiae deletion strains, growth OD, locus YDR318W, strain mcm21, active compounds read low
The whole screen tested about 5,500 compounds, of which about 2,000 (36%) were called active. Inconclusive results (about 18%) are left out. The list shows a part of the results.
# respond with the number and nothing more

Some compounds with recorded normalized growth:
[
  {
    "COMPOUND": "CC1CC[C@]2(NC1)O[C@H]1CC3C4CC[C@H]5C[C@@H](O)CC[C@]5(C)C4CC[C@]3(C)[C@H]1[C@@H]2C (stereo not given in full)",
    "normalized growth": 0.0797
  },
  {
    "COMPOUND": "CC(=O)[C@@]1(O)CCC2C3C[C@H](C)C4=CC(=O)C=CC4(C)[C@@]3(F)[C@@H](O)C[C@@]21C (stereo not given in full)",
    "normalized growth": 1.01
  },
  {
    "COMPOUND": "CC1=CC(=O)C2=C(C)CC[C@@H]3[C@H](OC(=O)[C@H]3C)[C@@H]12",
    "normalized growth": 1
  },
  {
    "COMPOUND": "CCN1C[C@]2(C)CC[C@H](OC)[C@]34C2[C@H](O)[C@]2(OCO[C@@]25C[C@H](OC)[C@H]2C[C@]3(O)C5[C@H]2O)C14",
    "normalized growth": 1.01
  }
]

Incoming: Given the compound C[C@@H]([C@H](O)c1ccccc1)N(C)C , what is its reported normalized growth?
Outgoing: 1.01

Incoming: Also need CNC(C)C(O)c1ccccc1 (stereo not given) , thanks.
Outgoing: 1.02

Incoming: Subsequent entry: CC1(C)C2CC(=O)[C@]3(C)C(CC[C@@]4(C)[C@H](c5ccoc5)OC(=O)[C@H]5O[C@]543)[C@@]2(C)C(=O)C[C@H]1O (stereo not given in full)
Outgoing: 1.01

====

normalized growth values, listed per item
PROCEDURE TEXT: chemical genetic growth profiling, strain panel (AID 1159580);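 also: tested at 20 µM; growth read once vehicle control cultures reached saturation at 30 °C; 1 = growth at the plate median or of vehicle wells; lower values mean less growth of the strain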
REPORTED CONDITIONS: S. cerevisiae deletion strains, growth OD, locus YGL227W, strain vid30, active compounds read low
Among all 5,500 compounds or so, about 2,000 (36%) were called active. Inconclusive results (about 18%) are left out. Some of the results follow.
Lab note: record just the number, no unit beside it.

Some solved entries appear below for comparison.
[
  {
    "COMPOUND": "C[C@]12CCC3c4ccc(O)cc4CCC3C1C[C@@H](O)[C@@H]2O (stereo partly specified)",
    "normalized growth": 1.02
  },
  {
    "COMPOUND": "CNC(C)C(O)c1ccccc1 (stereo unspecified)",
    "normalized growth": 1.01
  },
  {
    "COMPOUND": "C[C@]12CCC3c4ccc(OS(=O)(=O)O)cc4CCC3C1CC[C@H]2O (stereo partly specified)",
    "normalized growth": 0.981
  }
]

Incoming: Need normalized growth of COc1ccc2c(c1)CCC1C2CCC2(C)C1C[C@@H](O)C2O (stereo partly specified) , thanks.
Outgoing: 1

Incoming: # iterate: CC(=O)OC(C)C[N+](C)(C)C (stereo unspecified)
Outgoing: 0.986

Incoming: Next: C[C@@H]([C@H](O)c1ccccc1)N(C)C
Outgoing: 1.01

Values from PubChem BioAssay AID1159580
